target: NLRP3 (Homo sapiens); test: THP-1 cells pyroptosis assay (LPS + nigericin, resazurin readout; THP IC50); assay type: cell-based; parameters: Seed THP-1 cells (25,000 cells/well) containing 1.0 μg/ml LPS in 40 μl of RPMI medium; host or cells: THP-1 cells
Sequence (Q96P20 whole entry): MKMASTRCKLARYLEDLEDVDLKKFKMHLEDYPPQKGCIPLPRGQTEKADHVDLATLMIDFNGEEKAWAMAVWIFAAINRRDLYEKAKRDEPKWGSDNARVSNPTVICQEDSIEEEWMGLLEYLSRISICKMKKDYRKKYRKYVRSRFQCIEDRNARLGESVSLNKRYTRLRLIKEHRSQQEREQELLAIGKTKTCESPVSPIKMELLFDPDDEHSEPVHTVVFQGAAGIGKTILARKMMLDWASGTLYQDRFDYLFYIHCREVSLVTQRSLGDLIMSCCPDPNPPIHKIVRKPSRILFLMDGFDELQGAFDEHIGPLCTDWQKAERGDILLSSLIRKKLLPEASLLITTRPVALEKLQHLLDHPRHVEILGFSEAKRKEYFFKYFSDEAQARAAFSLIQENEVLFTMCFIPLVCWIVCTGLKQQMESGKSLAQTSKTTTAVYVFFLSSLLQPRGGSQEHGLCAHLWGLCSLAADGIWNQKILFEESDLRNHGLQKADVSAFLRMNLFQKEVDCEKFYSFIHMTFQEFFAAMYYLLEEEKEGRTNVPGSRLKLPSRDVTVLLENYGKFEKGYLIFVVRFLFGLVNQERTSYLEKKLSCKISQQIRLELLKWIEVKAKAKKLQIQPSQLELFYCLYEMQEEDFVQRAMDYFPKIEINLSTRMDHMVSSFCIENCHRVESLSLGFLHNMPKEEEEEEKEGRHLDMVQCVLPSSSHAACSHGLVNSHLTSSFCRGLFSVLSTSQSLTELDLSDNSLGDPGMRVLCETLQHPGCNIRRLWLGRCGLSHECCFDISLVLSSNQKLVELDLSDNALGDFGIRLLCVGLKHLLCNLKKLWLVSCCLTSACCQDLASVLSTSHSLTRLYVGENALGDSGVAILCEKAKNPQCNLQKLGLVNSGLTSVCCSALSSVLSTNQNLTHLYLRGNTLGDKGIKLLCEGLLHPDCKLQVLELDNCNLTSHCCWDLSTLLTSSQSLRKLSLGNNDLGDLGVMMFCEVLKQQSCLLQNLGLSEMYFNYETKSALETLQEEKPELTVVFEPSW
Counter-ions that a name gives are not always drawn.
# IC50 values compiled below

Answered cases to consult:
COCCCS(=O)(=O)NC(=O)Nc1c(-c2ccnc(OC)c2)cc(F)cc1C(C)C [Example 155]
≤ 500 nM
CCN(CC)CCCS(=O)(=O)NC(=O)Nc1c(-c2cccnc2)cc(F)cc1C(C)C [Example 58]
≤ 500 nM
CC(C)n1ccc(S(=O)(=O)NC(=O)Nc2c(-c3ccnc(Oc4ccccc4)c3)ccc3c2CCC3)n1 [Example 286, sodium salt]
≤ 500 nM
COCCCS(=O)(=O)NC(=O)Nc1c(-c2ccnc(OC)c2)ccc2c1CCC2 [Example 156]
≤ 500 nM
CC(C)n1cc(S(=O)(=O)NC(=O)Nc2c(-c3ccncc3)cc(F)c3c2CCC3)ccc1=O [Example 91]
≤ 500 nM
O=C(Nc1c(-c2ccncc2)cc(F)c2c1CCC2)NS(=O)(=O)c1nccnc1C(F)F [Example 113]
≤ 5000 nM
CC(C)c1cc(F)cc(-c2ccnc(C#N)c2)c1NC(=O)NS(=O)(=O)c1cn(C(C)C)cn1 [Example 54]
≤ 500 nM

Turning to the following compound.
Data request: What does the record list as IC50 for CC(C)n1ccc(S(=O)(=O)NC(=O)Nc2c(-c3cncnc3)ccc3c2CCC3)n1 [Example 241] ?
Data returned: ≤ 5000 nM
